Target: Acetylcholinesterase (Homo sapiens, UniProt P22303)
Sequence (P22303 whole entry): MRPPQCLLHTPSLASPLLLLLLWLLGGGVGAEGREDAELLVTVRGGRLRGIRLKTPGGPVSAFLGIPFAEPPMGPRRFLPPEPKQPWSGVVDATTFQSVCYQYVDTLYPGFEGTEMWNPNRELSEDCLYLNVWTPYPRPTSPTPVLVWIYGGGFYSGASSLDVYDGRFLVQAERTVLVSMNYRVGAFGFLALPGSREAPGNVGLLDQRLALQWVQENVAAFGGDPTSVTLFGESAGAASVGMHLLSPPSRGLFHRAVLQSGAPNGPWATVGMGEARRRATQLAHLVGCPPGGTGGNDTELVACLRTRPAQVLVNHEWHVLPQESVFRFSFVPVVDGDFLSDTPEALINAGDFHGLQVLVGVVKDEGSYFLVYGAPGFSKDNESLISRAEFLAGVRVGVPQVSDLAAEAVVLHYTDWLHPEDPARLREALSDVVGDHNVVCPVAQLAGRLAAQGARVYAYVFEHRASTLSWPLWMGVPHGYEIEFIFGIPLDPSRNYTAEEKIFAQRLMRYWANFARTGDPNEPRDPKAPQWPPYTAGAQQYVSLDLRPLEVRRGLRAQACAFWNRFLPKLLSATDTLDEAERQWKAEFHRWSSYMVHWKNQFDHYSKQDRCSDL
Assay: Inhibition of human acetylcholinesterase using […] as substrate preincubated for 30 mins followed by substrate addition measured after 2.5 mins by Ellman's spectrophotometric method
measured quantity: IC50 (nM)
Provide only the numeric value, understood in nM.

{"compound": "CCCCCCCNC(=O)Oc1ccc2c(c1)CN(C)C(c1cc[nH]c1)N2C (configuration not stated)", "numeric result": 852}

As a next step, examine the compound that follows.
Task: # query: IC50 of entry CCCCCCCNC(=O)Oc1ccc2c(c1)CN(C)C(c1ccc(F)cc1)N2C (configuration not stated)
Result: 1610

---

Target: Cholinesterase (Equus caballus)
Test: Inhibition of equine serum butyrylcholinesterase using […] as substrate preincubated for 4.5 mins followed by substrate addition measured after 2.5 mins by Ellman's spectrophotometric method
Reported pIC50 values for a set of compounds
pIC50 is a log-scale quantity: -log10 of the concentration expressed in molar.

These recorded examples may help you get a feel for the data.
{"compound": "COc1ccccc1C1N(C)Cc2cc(O)ccc2N1C (stereo not drawn)", "numeric result": 5.00}
{"compound": "Cc1cccc(C2N(C)Cc3cc(O)ccc3N2C)c1 (stereo not drawn)", "numeric result": 4.76}
{"compound": "CN1Cc2cc(O)ccc2N(C)C1c1ccoc1 (stereo not drawn)", "numeric result": 3.71}
{"compound": "CN1Cc2cc(O)ccc2N(C)C1c1ccncc1 (stereo not drawn)", "numeric result": 5.68}
{"compound": "Cc1ccccc1C1N(C)Cc2cc(O)ccc2N1C (stereo not drawn)", "numeric result": 4.03}
{"compound": "CN1Cc2cc(O)ccc2N(C)C1c1ccsc1 (stereo not drawn)", "numeric result": 3.71}
{"compound": "CCCN1Cc2cc(O)ccc2N(C)C1c1ccccc1 (stereo not drawn)", "numeric result": 4.64}
{"compound": "Cc1ccc(C2N(C)Cc3cc(O)ccc3N2C)cc1 (stereo not drawn)", "numeric result": 4.65}

Task: Quick check: pIC50 on Cholinesterase (Equus caballus), item CN1Cc2cc(O)ccc2N(C)C1c1cccnc1 (stereo not drawn) ?
Result: 4.15

Task: Quick check: pIC50 on Cholinesterase (Equus caballus), item COc1ccc(C2N(C)Cc3cc(O)ccc3N2C)cc1 (stereo not drawn) ?
Result: 4.40

---

Target: Acetylcholinesterase (Homo sapiens)
Test: Inhibition of human acetylcholinesterase using […] as substrate at 100 uM preincubated for 4.5 mins followed by substrate addition measured after 2.5 mins by Ellman's spectrophotometric method
Quick rule for you: inhibition at 20% or higher means TRUE, lower means FALSE.

Solved entries:
{"compound": "CCCCCCCNC(=O)Oc1ccc2c(c1)CN(C(C)C)C(c1ccccc1)N2C (stereo unspecified)", "study system": "Acetylcholinesterase (Homo sapiens)", "assigned label": "TRUE"}
{"compound": "CCCCCCCNC(=O)Oc1ccc2c(c1)CN(C)C(c1cccs1)N2C (stereo unspecified)", "study system": "Acetylcholinesterase (Homo sapiens)", "assigned label": "FALSE"}
{"compound": "CCCCCCCNC(=O)Oc1ccc2c(c1)CN(C)C(c1ccccc1)N2C (stereo unspecified)", "study system": "Acetylcholinesterase (Homo sapiens)", "assigned label": "FALSE"}
{"compound": "CCCCCCCNC(=O)Oc1ccc2c(c1)CN(C)C(c1ccc(C(F)(F)F)cc1)N2C (stereo unspecified)", "study system": "Acetylcholinesterase (Homo sapiens)", "assigned label": "TRUE"}
{"compound": "CCCCCCCNC(=O)Oc1ccc2nc(-c3ccccc3)ncc2c1", "study system": "Acetylcholinesterase (Homo sapiens)", "assigned label": "TRUE"}

Task: Hi team, for CCCCCCCNC(=O)Oc1ccc2c(c1)CN(C)C(c1ccoc1)N2C (stereo unspecified) , is the recorded inhibition at or above 20%?
Result: FALSE

Task: Hi team, for CCCCCCCNC(=O)Oc1ccc2c(c1)CN(C)C(c1cccc(C)c1)N2C (stereo unspecified) , is the recorded inhibition at or above 20%?
Result: TRUE

Task: Hi team, for CCCCCCCNC(=O)Oc1ccc2c(c1)CN(C)C(c1ccc(C)cc1)N2C (stereo unspecified) , is the recorded inhibition at or above 20%?
Result: FALSE

Task: Hi team, for CCCCCCCNC(=O)Oc1ccc2c(c1)CN(C)C(c1ccc(Cl)cc1)N2C (stereo unspecified) , is the recorded inhibition at or above 20%?
Result: TRUE

Task: Hi team, for CCCCCCCNC(=O)Oc1ccc2c(c1)CN(C)C(c1ccsc1)N2C (stereo unspecified) , is the recorded inhibition at or above 20%?
Result: FALSE

Task: Hi team, for CCCCCCCNC(=O)Oc1ccc2c(c1)CN(C)C(c1cccc(Cl)c1)N2C (stereo unspecified) , is the recorded inhibition at or above 20%?
Result: TRUE

Task: Hi team, for CCCCCCCNC(=O)Oc1ccc2c(c1)CN(C)C(c1ccc(OC)cc1)N2C (stereo unspecified) , is the recorded inhibition at or above 20%?
Result: FALSE

Task: Hi team, for CCCCCCCNC(=O)Oc1ccc2c(c1)CN(C)C(c1ccncc1)N2C (stereo unspecified) , is the recorded inhibition at or above 20%?
Result: FALSE

Task: Hi team, for CCCCCCCNC(=O)Oc1ccc2c(c1)CN(C)C(c1cccnc1)N2C (stereo unspecified) , is the recorded inhibition at or above 20%?
Result: FALSE

Task: Hi team, for CCCCCCCNC(=O)Oc1ccc2c(c1)CN(C)C(c1cccc(OC)c1)N2C (stereo unspecified) , is the recorded inhibition at or above 20%?
Result: FALSE

Task: Hi team, for CCCCCCCNC(=O)Oc1ccc2c(c1)CN(CCC)C(c1ccccc1)N2C (stereo unspecified) , is the recorded inhibition at or above 20%?
Result: TRUE

---

Target: Cholinesterase (Equus caballus) (UniProt P81908)
Sequence (P81908 whole entry): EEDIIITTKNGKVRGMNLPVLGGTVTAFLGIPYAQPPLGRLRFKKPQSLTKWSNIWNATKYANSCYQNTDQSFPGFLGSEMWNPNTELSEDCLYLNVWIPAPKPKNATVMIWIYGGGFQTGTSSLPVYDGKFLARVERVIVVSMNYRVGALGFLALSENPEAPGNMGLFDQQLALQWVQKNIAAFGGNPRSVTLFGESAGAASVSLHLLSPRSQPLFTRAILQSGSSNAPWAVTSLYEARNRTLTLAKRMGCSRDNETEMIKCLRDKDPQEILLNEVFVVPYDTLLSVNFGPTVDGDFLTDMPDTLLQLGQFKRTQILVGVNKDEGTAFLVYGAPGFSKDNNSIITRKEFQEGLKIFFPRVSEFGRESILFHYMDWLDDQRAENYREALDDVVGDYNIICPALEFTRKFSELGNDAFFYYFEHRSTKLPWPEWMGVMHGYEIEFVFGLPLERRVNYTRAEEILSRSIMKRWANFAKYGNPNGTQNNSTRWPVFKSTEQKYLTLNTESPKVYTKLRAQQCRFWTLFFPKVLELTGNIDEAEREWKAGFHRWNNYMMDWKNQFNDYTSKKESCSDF
Experiment: Pseudo-irreversible inhibition of equine serum butyrylcholinesterase assessed as carbamoylation rate of inhibitor from reversible enzyme inhibitor complex to carbamoylated enzyme using p-nitrophenyl butyrate as substrate preincubated for 5 to 40 mins followed by substrate addition by double reciprocal plot analysis
measured quantity: K (min⁻¹)
Provide only the numeric value, understood in min⁻¹.

{"compound": "CCCCCCCNC(=O)Oc1ccc2c(c1)CN(C)C(c1cccc(OC)c1)N2C (stereo not given)", "K [min⁻¹]": 0.18}
{"compound": "CCCCCCCNC(=O)Oc1ccc2c(c1)CN(C)C(c1ccc(OC)cc1)N2C (stereo not given)", "K [min⁻¹]": 0.24}

Task: # query: K of entry CCCCCCCNC(=O)Oc1ccc2nc(-c3ccccc3)ncc2c1
Result: 0.14

Task: # query: K of entry CCCCCCCNC(=O)Oc1ccc2c(c1)CN(C)C(c1ccccc1)N2C (stereo not given)
Result: 0.13

Task: # query: K of entry CCCCCCCNC(=O)Oc1ccc2c(c1)CN(C)C(c1ccc(F)cc1)N2C (stereo not given)
Result: 0.14

---

Target: Cholinesterase (Equus caballus, UniProt P81908)
Sequence (P81908 whole entry): as the sequence (P81908 whole entry) above
Assay: Inhibition of equine serum butyrylcholinesterase using […] as substrate preincubated for 30 mins followed by substrate addition measured after 2.5 mins by Ellman's spectrophotometric method
measured quantity: pIC50
pIC50 is a log-scale quantity: -log10 of the concentration expressed in molar.

These recorded examples may help you get a feel for the data.
{"compound": "CCCCCCCNC(=O)Oc1ccc2c(c1)CN(C)C(c1ccoc1)N2C (configuration not stated)", "measured quantity": "pIC50", "numeric result": 7.08}
{"compound": "CCCCCCCNC(=O)Oc1ccc2c(c1)CN(C)C(c1ccncc1)N2C (configuration not stated)", "measured quantity": "pIC50", "numeric result": 6.14}
{"compound": "CCCCCCCNC(=O)Oc1ccc2c(c1)CN(C)C(c1cccnc1)N2C (configuration not stated)", "measured quantity": "pIC50", "numeric result": 6.25}
{"compound": "CCCCCCCNC(=O)Oc1ccc2c(c1)CN(C)C(c1ccc(Cl)cc1)N2C (configuration not stated)", "measured quantity": "pIC50", "numeric result": 6.94}
{"compound": "CCCCCCCNC(=O)Oc1ccc2c(c1)CN(C)C(c1ccccc1Cl)N2C (configuration not stated)", "measured quantity": "pIC50", "numeric result": 6.32}
{"compound": "CCCCCCCNC(=O)Oc1ccc2c(c1)CN(C)C(c1ccc(OC)cc1)N2C (configuration not stated)", "measured quantity": "pIC50", "numeric result": 6.06}

Task: # query: pIC50 of entry CCCCCCCNC(=O)Oc1ccc2c(c1)CN(C)C(c1cccc3ccccc13)N2C (configuration not stated)
Result: 4.44

Task: # query: pIC50 of entry CCCCCCCNC(=O)Oc1ccc2c(c1)CN(C)C(c1ccccc1OC)N2C (configuration not stated)
Result: 6.62

Task: # query: pIC50 of entry CCCCCCCNC(=O)Oc1ccc2c(c1)CN(C)C(c1cc[nH]c1)N2C (configuration not stated)
Result: 7.64

Task: # query: pIC50 of entry CCCCCCCNC(=O)Oc1ccc2c(c1)CN(C)C(c1ccc3ccccc3c1)N2C (configuration not stated)
Result: 6.43

Task: # query: pIC50 of entry CCCCCCCNC(=O)Oc1ccc2c(c1)CN(C)C(c1ccccc1)N2C (configuration not stated)
Result: 6.97

Task: # query: pIC50 of entry CCCCCCCNC(=O)Oc1ccc2c(c1)CN(C)C(c1ccc(C)cc1)N2C (configuration not stated)
Result: 6.64

Task: # query: pIC50 of entry CCCCCCCNC(=O)Oc1ccc2c(c1)CN(C)C(c1cccc(C)c1)N2C (configuration not stated)
Result: 6.70
